Exercise: state measured max response for each of the compounds provided.
test system: CRL-7250; test: Cytotoxic Profiling of Annotated Libraries Using Quantitative High-Throughput Screening (AID 1296008); conditions: Five cell lines viability, CellTiter-Glo ATP luminescence, 48-72 h; active compounds read low; note: % is set by controls: 0 for no effect and ±100 for the full control effect; nearly all actives have a fitted effect of over 60% in size
Results filed as inconclusive are left out.
Dear colleague, please return just the value in %, with no unit written.

Input C[C@@H]1O[C@@H](OC2C(O[C@H]3[C@H](O[C@H]4CC[C@@]5(C)C(CC[C@]6(C)C5CC=C5C7CC(C)(C)CC(O)[C@]7(C)CC[C@]56C)C4(C)C)O[C@H](C(=O)O)[C@@H](O)[C@@H]3O)OC(CO)C(O)C2O)[C@H](O)[C@H](O)[C@H]1O (some centres not stated) . Output max response: 4.13

Input COc1cc([C@H]2OC[C@](O)(Cc3ccc(O[C@@H]4O[C@H](CO)[C@@H](O)[C@H](O)[C@H]4O)c(OC)c3)[C@@H]2CO)ccc1O . Output max response: -8.35

Input CC1(O)CC(O)C2C(C(=O)O)=COC(OC3OC(CO)C(O)C(O)C3OC(=O)/C=C/c3ccc(O)cc3)C21 (configuration not stated) . Output max response: 2.15

Input CC1(C)C[C@@H]2[C@H](C1)[C@@]1(C)C[C@]13C(O)OC[C@]3(O)[C@H]2O (some centres not stated) . Output max response: -3.6

Input C=CCC/C=C/C#CCCCCCCCC[C@H]1C(=O)O[C@H](C)[C@@H]1O . Output max response: 0.985

Input N[C@@H](CC(=O)Nc1ccc(Oc2cc(F)c(F)cc2Br)cc1)C(=O)O . Output max response: -23

Input COc1ccc(Oc2c(Cl)cnn(C3c4ccccc4-c4ccccc43)c2=O)cc1 . Output max response: -3.95
